target: MASP-2 CCP2-SP (Homo sapiens (Human)); assay: MASP-2 co-crystallization, X-ray crystallography and structure analysis (H-bonds, van der Waals contacts); details: Table A5-2 pharmacophore distance, S3/S4 region
Where a name gives a salt, the structure may show the parent alone.
Property Name: d(N2,CA2)
The answer should be a number; do not append a unit.

Example results:
CC(=O)Nc1ccc(CCNC(CCc2ccccc2)C(=O)NC(C)C(=O)NCc2ccc(C(=N)N)cc2)cc1.Cl.Cl (stereo not drawn) [1345_2]: 5.98
C[C@H](NC(=O)[C@H]1C[C@@H](c2ccccc2)CCN1)C(=O)NCc1cc(Cl)ccc1O.Cl [1078_16]: 5.80
C[C@H](NC(=O)[C@H]1C[C@@H](c2ccccc2)CCN1)C(=O)NCc1cc(Cl)ccc1O.Cl [1078_11]: 5.75
CC(=O)Nc1ccc(CCN[C@H](CCc2ccccc2)C(=O)N[C@@H](C)C(=O)NCc2ccc(N)nc2C)cc1 [compound 1368, Dihydrochloride]: 6.36

In: Suppose we examine the compound Cc1nc(N)ccc1CNC(=O)[C@H](C)NC(=O)[C@H]1C[C@H](Cc2ccccc2-c2ccccc2)CN1 [compound 1373, Di-trifluoroacetate salt] ; what d(N2,CA2) value has been reported?
Out: 6.03

In: Suppose we examine the compound Cc1nc(N)ccc1CNC(=O)[C@H](C)NC(=O)[C@H]1C[C@@H](c2ccccc2)CCN1CCC(=O)O [compound 1411, Trifluoroacetate salt] ; what d(N2,CA2) value has been reported?
Out: 5.72

====

biological target: MASP-2 CCP2-SP (Homo sapiens (Human), UniProt O00187); assay: MASP-2 co-crystallization, X-ray crystallography and structure analysis (H-bonds, van der Waals contacts); parameters: unit not given beside the values; settings: Table A5-1 pharmacophore: distance between elements, S2/S1 region
Sequence (O00187 445-686): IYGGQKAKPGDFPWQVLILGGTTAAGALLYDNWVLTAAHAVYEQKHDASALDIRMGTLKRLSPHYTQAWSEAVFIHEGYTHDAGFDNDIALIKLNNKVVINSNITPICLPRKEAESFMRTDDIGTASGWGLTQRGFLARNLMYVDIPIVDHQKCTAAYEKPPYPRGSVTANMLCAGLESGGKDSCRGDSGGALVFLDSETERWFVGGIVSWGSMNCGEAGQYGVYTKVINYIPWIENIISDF
Sequence (O00187 364-432 partner): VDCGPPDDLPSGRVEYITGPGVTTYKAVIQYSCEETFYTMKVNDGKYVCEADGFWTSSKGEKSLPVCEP
d(O4,H2) overview
The answer should be a number; do not append a unit.

C[C@H](NC(=O)[C@H]1C[C@@H](c2ccccc2)CCN1)C(=O)NCc1cc(Cl)ccc1O.Cl [1078_12]: 0.98
C[C@H](NC(=O)[C@H]1C[C@@H](c2ccccc2)CCN1)C(=O)NCc1cc(Cl)ccc1O.Cl [1078_13]: 0.98
C[C@H](NC(=O)[C@H]1C[C@@H](c2ccccc2)CCN1)C(=O)NCc1cc(Cl)ccc1O.Cl [1078_4]: 0.97

Could you now look at the following molecule, please?
In: Suppose we examine the molecule C[C@H](NC(=O)[C@H]1C[C@@H](c2ccccc2)CCN1)C(=O)NCc1cc(Cl)ccc1O.Cl [1078_8] ; what d(O4,H2) value has been reported?
Out: 0.98

====

d(C3,CA1) overview
target: MASP-2 CCP2-SP (Homo sapiens (Human)); experiment: MASP-2 co-crystallization, X-ray crystallography and structure analysis (H-bonds, van der Waals contacts); parameters: unit not given beside the values; conditions: Table A5-1 pharmacophore: distance between elements, S2/S1 region
Where a name gives a salt, the structure may show the parent alone.
The answer should be a number; do not append a unit.

Cc1nc(N)ccc1CNC(=O)[C@H](C)NC(=O)c1cc(Cc2ccccc2)n[nH]1: 2.85
Cc1nc(N)ccc1CNC(=O)[C@H](C)NC(=O)[C@H]1C[C@@H](c2cccc3ccccc23)CCN1.Cl.Cl [1297_5]: 2.86
Cc1nc(N)ccc1CNC(=O)[C@H](C)NC(=O)[C@H]1C[C@@H](c2ccccc2)CCN1 [compound 1253, Dihydrochloride]: 2.87
Cc1nc(N)ccc1CNC(=O)[C@H](C)NC(=O)[C@H]1C[C@@H](c2cccc3ccccc23)CCN1.Cl.Cl [1297_4]: 2.87
Cc1nc(N)ccc1CNC(=O)C(C)NC(=O)C1CC(c2cccc3ccccc23)CCN1.Cl.Cl (stereo not shown) [1297_3]: 2.85
Cc1nc(N)ccc1CNC(=O)C(C)NC(=O)C1CC(c2cccc3ccccc23)CCN1.Cl.Cl (stereo not shown) [1297_1]: 2.87

In: Suppose we examine the compound Cc1nc(N)ccc1CNC(=O)[C@H](C)NC(=O)[C@H]1C[C@H](Cc2cccc(-c3ccccc3)c2)CN1 ; what d(C3,CA1) value has been reported?
Out: 2.86

In: Suppose we examine the compound CC(=O)Nc1ccc(CCN[C@H](CCc2ccccc2)C(=O)N[C@@H](C)C(=O)NCc2ccc(N)nc2C)cc1 [compound 1368, Dihydrochloride] ; what d(C3,CA1) value has been reported?
Out: 2.86

In: Suppose we examine the compound Cc1nc(N)ccc1CNC(=O)[C@H](C)NC(=O)[C@H]1C[C@H](Cc2ccccc2Br)CN1.O=C(O)C(F)(F)F.O=C(O)C(F)(F)F [1372_B] ; what d(C3,CA1) value has been reported?
Out: 2.85

In: Suppose we examine the compound Cc1nc(N)ccc1CNC(=O)[C@H](C)NC(=O)[C@H]1C[C@@H](c2ccccc2)CCN1C ; what d(C3,CA1) value has been reported?
Out: 2.85

====

a(O2, N2, CA2) overview
molecular target: MASP-2 CCP2-SP (Homo sapiens (Human), UniProt O00187); test: MASP-2 co-crystallization, X-ray crystallography and structure analysis (H-bonds, van der Waals contacts); conditions: Table A6-2 pharmacophore angle
The answer should be a number; do not append a unit.

Cc1cc(Cl)cc(CNC(=O)[C@H](C)NC(=O)[C@H]2C[C@H](Cc3ccccc3)CN2)c1O: 155.37
C[C@H](NC(=O)[C@H]1C[C@@H](c2ccccc2)CCN1)C(=O)NCc1cc(Cl)ccc1O.Cl [1078_1]: 154.68
C[C@H](NC(=O)[C@H]1C[C@@H](c2ccccc2)CCN1)C(=O)NCc1cc(Cl)ccc1O.Cl [1078_11]: 152.82
C[C@H](NC(=O)[C@H]1C[C@H](Cc2ccccc2)CN1)C(=O)NCc1cnc2[nH]cc(Cl)c2c1: 155.99
C[C@H](NC(=O)[C@H]1C[C@@H](c2ccccc2)CCN1)C(=O)NCc1cc(Cl)ccc1O.Cl [1078_2]: 155.89

In: Suppose we examine the compound CC(NC(=O)C1CC(Cc2ccccc2)CN1)C(=O)NCc1cnc2c(c1)c(Cl)cn2C.Cl.Cl (stereo not shown) [1450_B] ; what a(O2, N2, CA2) value has been reported?
Out: 155.81

In: Suppose we examine the compound C[C@H](NC(=O)[C@H]1C[C@@H](c2ccccc2)CN1)C(=O)NCc1ccc2c(N)nccc2c1.Cl.Cl ; what a(O2, N2, CA2) value has been reported?
Out: 154.37

====

molecular target: MASP-2 CCP2-SP (Homo sapiens (Human)); assay: MASP-2 co-crystallization, X-ray crystallography and structure analysis (H-bonds, van der Waals contacts); details: Table A4-1; element CA2
Property Name: Ligand-pharmacophore element distance, pharmacophore element CA2
The answer should be a number; do not append a unit.

Example results:
Cc1nc(N)ccc1CNC(=O)[C@H](C)NC(=O)[C@H]1C[C@H](Cc2cccc(-c3ccccc3)c2)CN1: 0.42
C[C@H](NC(=O)[C@H]1C[C@@H](c2ccccc2)CCN1)C(=O)NCc1cc(Cl)ccc1O.Cl [1078_14]: 0.8
C[C@H](NC(=O)[C@H]1C[C@@H](c2ccccc2)CCN1)C(=O)NCc1cc(Cl)ccc1O.Cl [1078_1]: 0.48

Could you now look at the following molecule, please?
In: Suppose we examine the molecule CC(=O)Nc1ccc(CCNC(CCc2ccccc2)C(=O)NC(C)C(=O)NCc2ccc(C(=N)N)cc2)cc1.Cl.Cl (stereo not shown) [1345_2] ; what Ligand-pharmacophore element distance, pharmacophore element CA2 value has been reported?
Out: 0.89

====

Pharmacophore protein distance to TRP_655 overview
Biological target: MASP-2 CCP2-SP (Homo sapiens (Human))
Experiment: MASP-2 co-crystallization, X-ray crystallography and structure analysis (H-bonds, van der Waals contacts)
Conditions: Table A8-6; pharmacophore elements C6, CA3, O3, H1; nearest protein atom in cell to the left
Text: This example illustrates the preparation of recombinant MASP-2 protein, based on UniProt O00187, human mannan-binding lectin serine protease 2. Expression constructs for human MASP-2 CCP2-SP and CCP2-SP-6HIS were generated for recombinant expression in E. coli cells. […]
The answer should be a number; do not append a unit.

Example results:
C[C@H](NC(=O)[C@H](N)C1Cc2ccccc2C1)C(=O)NCc1ccc2c(N)nccc2c1.Cl.Cl [1088_B]: 3.75
C[C@H](NC(=O)[C@H](N)CCc1ccccc1)C(=O)NCc1ccc(N)nc1.Cl.Cl [1007_1]: 3.70
C[C@H](NC(=O)[C@@H](CCc1ccccc1)NCc1ccc(N2CCOCC2)cc1)C(=O)NCc1ccc(C(=N)N)cc1: 3.27

In: Suppose we examine the compound CC(NC(=O)C(CCc1ccccc1)NCc1ccc(C(=O)N2CCOCC2)cc1)C(=O)NCc1ccc(C(=N)N)cc1.Cl.Cl (stereo not shown) ; what Pharmacophore protein distance to TRP_655 value has been reported?
Out: 3.42

In: Suppose we examine the compound C[C@H](NC(=O)[C@H](N)CCCc1ccccc1)C(=O)NCc1ccc(C(=N)N)cc1.Cl.Cl [1042_1] ; what Pharmacophore protein distance to TRP_655 value has been reported?
Out: 3.28

In: Suppose we examine the compound C[C@H](NC(=O)[C@H](N)C1Cc2ccccc2C1)C(=O)NCc1ccc2c(N)nccc2c1.Cl.Cl [1088_A] ; what Pharmacophore protein distance to TRP_655 value has been reported?
Out: 3.75

In: Suppose we examine the compound C[C@H](NC(=O)C1C[C@@H](c2ccccc2)CCN1)C(=O)NCc1ccc(C(=N)N)cc1 (stereo in doubt) ; what Pharmacophore protein distance to TRP_655 value has been reported?
Out: 3.73

Provenance of the data: patent US12195427B2
